- System: PC-3 prostate
- protocol-details: NCI-60 one-dose screen, 48 h
- experimental-parameters: 10 µM unless noted
About 83,000 compounds went through this panel and 20% of them were active in at least one assay; those are over-represented in the sample as a whole. Active and inactive are the calls of the source. The calls were made as follows: active = growth percent below 10; inactive = the rest.
Can you answer with just one of these options? yes (1) (active), no (0) (inactive)

Use these answered entries as a reference point.
COc1ccc(-c2cc(-c3cccnc3)nc3sc(C(=O)Nc4ccccc4)c(N)c23)cc1OC
no (0)
O=CN1N=C(c2ccc(Nc3ccnc4cc(Cl)ccc34)cc2)CC1c1ccc(Cl)cc1 (configuration not stated)
no (0)
O=C1OC(Oc2ccccc2)(c2ccccc2)c2ccccc21 (configuration not stated)
no (0)
CC(C)=CCNc1ncnc2c1ncn2C1OC(COP(=O)(O)O)C(O)C1O (configuration not stated)
no (0)
O=C1Nc2ccc(Cl)cc2[C@@](C#CC2CC2)(C(F)(F)F)O1
no (0)

Qu. Any idea what this test logged for O=C(O)CNC(=O)C1(N2C(=O)c3ccccc3C2=O)CCCC1 ?
Ans. no (0)

Qu. Any idea what this test logged for Cc1ccc2nc(-c3ccc(N(C)C)c(Br)c3)cn2c1 ?
Ans. no (0)

Qu. Any idea what this test logged for COc1ccc2[nH]c(=O)c(CNc3ccc(Nc4nccc(-c5ccc(Cl)cc5)n4)cc3)cc2c1 ?
Ans. no (0)

Qu. Any idea what this test logged for N#Cc1ccccc1C#Cc1ccccc1C#Cc1ccc(OCCCCCCOc2ccc(C#Cc3ccccc3C#Cc3ccccc3C#N)cc2)cc1 ?
Ans. no (0)

====

- System: SK-OV-3 ovarian
- protocol-details: NCI-60 one-dose screen, 48 h
- experimental-parameters: 10 µM unless noted
The panel holds about 83,000 compounds, 20% with a hit somewhere; the sample as a whole holds those more often. The source made the active and inactive calls. The calls were made as follows: active = growth percent below 10; inactive = the rest.
Can you answer with just one of these options? t for active, f for inactive

Use these answered entries as a reference point.
CCCn1c(N)c(C(=O)CNc2ccc(I)cc2)c(=O)[nH]c1=O
f
Cc1cc2c(cc1C)[n+](Cc1ccc3ccccc3n1)cn2Cc1ccc2ccccc2n1
t
Fc1ccccc1C1c2ccccc2-c2nccn21 (stereo unspecified)
f
COc1ccc(OC)c(CCn2cncc2-c2c[nH]c3cc(Br)ccc23)c1
f
CC(C)Cn1cnc2c(NCn3nc(-c4cc(Cl)cc(Cl)c4Cl)n(/N=C/c4ccc(Cl)cc4)c3=S)nc3ccccc3c21
f
O=c1ccn(C2CC=C(CO)O2)c(=O)[nH]1 (stereo unspecified)
f

Qu. Any idea what this test logged for CC(C)C[C@H](NC(=O)/C=C/Cn1ccc2ccccc2c1=O)B(O)O ?
Ans. f

Qu. Any idea what this test logged for CN1CCN(c2nc3scc(-c4ccccc4)c3c(=O)[nH]2)CC1 ?
Ans. f

Qu. Any idea what this test logged for Cc1ccc(-c2c3c(N)nc(-c4ccncc4)nc3nc3c2c(C)nn3-c2ccccc2)cc1 ?
Ans. t

Qu. Any idea what this test logged for CC[C@@H](c1ccc(O)c(O)c1)[C@@H](CC)c1ccc(O)c(O)c1 ?
Ans. f

Qu. Any idea what this test logged for CCSc1nc(Nc2ccc(S(=O)(=O)Nc3ccon3)cc2)c(C#N)c(-c2cccc(Br)c2)n1 ?
Ans. f

====

- System: SK-MEL-2 melanoma
- protocol-details: NCI-60 one-dose screen, 48 h
- experimental-parameters: 10 µM unless noted
Compounds without any hit were thinned out: in the full panel of roughly 83,000, 20% have a hit. Calls of active or inactive are those of the source. How the source made its calls: active means growth percent below 10; inactive means the rest.
Can you answer with just one of these options? yes (1) (active), no (0) (inactive)

Use these answered entries as a reference point.
COc1ccc(CNC(=O)c2c(C)n([O-])c3cc(F)c(F)cc3[n+]2=O)cc1
no (0)
COc1ccc(CNC(=O)c2c(C)n([O-])c3ccccc3[n+]2=O)cc1
no (0)

Qu. Any idea what this test logged for Cc1ccc(-c2cc(-c3ccccc3)n(-c3ccccc3)n2)cc1 ?
Ans. no (0)

Qu. Any idea what this test logged for COc1cc2c(cc1OC)C(=O)/C(=C/c1cccc(OCC(=O)c3ccccc3)c1)C2 ?
Ans. no (0)

Qu. Any idea what this test logged for COc1cc2c(cc1OC)C(CC1(O)CCCCC1)N(S(=O)(=O)c1ccc(C)cc1)CC2 (configuration not stated) ?
Ans. yes (1)

Qu. Any idea what this test logged for COc1cc(/C=C/C(=O)CC(=O)/C=C/c2ccc(OC(=O)C3C4CC5CC(C4)CC3C5)c(OC)c2)ccc1OC(=O)C1C2CC3CC(C2)CC1C3 (configuration not stated) ?
Ans. no (0)

Qu. Any idea what this test logged for CC(NC(=O)Oc1cccc2ccccc12)c1ccccc1 (configuration not stated) ?
Ans. no (0)

Qu. Any idea what this test logged for O=C(NC1CCCCC1)c1ccc(Nc2ncnc3c2cnn3-c2ccccc2)cc1 ?
Ans. no (0)

Qu. Any idea what this test logged for COc1cc(/C=C/C(=O)C(C(=O)/C=C/c2ccc(OC(=O)CCNc3nnc(C)s3)c(OC)c2)C(=O)CCNc2nnc(C)s2)ccc1OC(=O)CCNc1nnc(C)s1 ?
Ans. no (0)

Qu. Any idea what this test logged for CCOc1cc(/C=C/C(=O)CC(=O)/C=C/c2ccc(OC(=O)CNc3nc4ccc(OC)cc4s3)c(OCC)c2)ccc1OC(=O)CNc1nc2ccc(OC)cc2s1 ?
Ans. no (0)

====

- System: NCI-H23 lung
- protocol-details: NCI-60 one-dose screen, 48 h (100 = growth as untreated, 0 = no growth, -100 = all killed)
- experimental-parameters: 10 µM unless noted
- Method: Growth inhibition of the NCI-H23 human Non-Small Cell Lung tumor cell line is measured as a screen for anti-cancer activity. Cells are grown in 96 well plates and exposed to the test compound for 48 hours. Compounds are tested at a single concentration, which is 10^-5 M for most compounds. The reported endpoint is percent growth (GI% or GIPRCNT), where numbers from 0 - 100% represent growth inhibition, and numbers from -100% - 0 represent cell death. […]
This is part of a sample that, as a whole, favours compounds with a hit. Of some 83,000 tested, about 20% had one in any assay. Active and inactive are the calls of the source. The calls were made as follows: active = growth percent below 10; inactive = the rest.
Known growth of a selection of compounds

Cc1cc(Br)c(C)cc1Br
97.9% (inactive)
COC(=O)[C@H](Cc1cn(C)cn1)NC(=O)[C@@H](NC(=O)Nc1cc(C(F)(F)F)cc(C(F)(F)F)c1)C(C)C
-77.2% [100 µM] (active)
COc1ccc(-c2c3c(N)nc(-c4ccncc4)nc3nc3c2c(C)nn3-c2ccccc2)cc1
59.9% (inactive)
COc1cnc2c(c1)C(=O)c1c-2n(CCCn2ccnc2)c(=O)c2cc(F)ccc12
-36.7% (active)
COc1cnc2c(c1)C(=O)c1c-2n(CCCN2CCNCC2)c(=O)c2cc(F)ccc12
-3.16% (active)
O=C1OC(Oc2ccccc2)(c2ccccc2)c2ccccc21 (stereo not given)
105% (inactive)
COc1c(Br)cc(C(c2cc(Br)c(OC)c(Br)c2)c2ccccc2C(=O)O)cc1Br
97.3% (inactive)
O=CN1N=C(c2ccc(Cl)cc2)CC1c1cccc(Nc2ccnc3cc(Cl)ccc23)c1 (stereo not given)
11.6% (inactive)

Qu. growth lookup needed for CSc1nc2nc3c(nc2c(=O)n1C)C(=O)c1ccccc1C3=O , thanks.
Ans. -26.4% (active)

Qu. growth lookup needed for CC1c2ccccc2-c2ccccc2N1C (stereo not given) , thanks.
Ans. 105% (inactive)

====

- Tested on: HS 578T breast
- protocol-details: NCI-60 one-dose screen, 48 h (100 = growth as untreated, 0 = no growth, -100 = all killed)
- experimental-parameters: 10 µM unless noted
About 83,000 compounds went through this panel and 20% of them were active in at least one assay; those are over-represented in the sample as a whole.
Known growth of a selection of molecules
The reply should contain only the number, in %.

Please review the following examples before continuing.
CCOC(=O)CCC(=O)O[C@H]1[C@H](O[C@@H]2[C@@H](C)[C@H](O[C@H]3C[C@@](C)(OC)[C@@H](O)[C@H](C)O3)[C@@H](C)C(=O)O[C@H](CC)[C@@](C)(O)[C@H](O)[C@@H](C)C(=O)[C@H](C)C[C@@]2(C)O)O[C@H](C)C[C@@H]1N(C)C
113
CSc1nc2nc3c(nc2c(=O)n1C)C(=O)c1ccccc1C3=O
-21.6
O=c1c2c(=NCCCN3CCCC3)cc3c(=O)n(CCCN4CCCC4)c(=O)c4c(NCCCN5CCCC5)cc(c(O)n1CCCN1CCCC1)c2c4-3
-16.5

Qu. Could you share what growth was measured for CC[C@@H](C)/C=C(C)/C=C/C(O)=C1\C(=O)N[C@@H](Cc2ccc(OC(=O)[C@@](OC)(c3ccccc3)C(F)(F)F)cc2)C1=O , tested on HS 578T breast?
Ans. 67.8

====

- Test system: UACC-257 melanoma
- protocol-details: NCI-60 one-dose screen, 48 h (100 = growth as untreated, 0 = no growth, -100 = all killed)
- experimental-parameters: 10 µM unless noted
The panel holds about 83,000 compounds, 20% with a hit somewhere; the sample as a whole holds those more often.
param class (str): category from growth; see ranges low-valued: < -20%; mid-valued: ≥ -20% and < 90%; high-valued: ≥ 90%

Cc1ccccc1NC(=O)NC(CC(N)=O)c1ccc2c(c1)nc(-c1cccc(Oc3ccc(C(C)(C)C)cc3)c1)n2CCCN1CCCCC1C (centres undefined)
low-valued
COc1cccc(-c2nc3cc(NC(=O)c4ccc(Cl)c(C#N)c4)ccc3o2)c1
mid-valued
O=C1C2C(C(=O)N1CC[Se][Se]CCN1C(=O)C3C(C1=O)[C@H]1C=C[C@@H]3C1)[C@H]1C=C[C@@H]2C1 (some centres undefined)
low-valued
COc1ccc2c(c1)sc1nc(-c3ccc(Br)cc3)cn12
high-valued

Qu. Form field 'band' for Cc1ccc(-c2csc(N)n2)cc1
Ans. mid-valued

Qu. Form field 'band' for O=C1c2cccc(NCCN=Cc3ccccc3O)c2C(=O)c2c(NCCN=Cc3ccccc3O)cccc21
Ans. high-valued

Qu. Form field 'band' for CC[C@@H](C)/C=C(C)/C=C/C(=O)c1c(O)c(-c2ccc(O)cc2)cn(OC2CC(=O)CCC(C)OC(=O)CC2O)c1=O (some centres undefined)
Ans. mid-valued

Data origin: PubChem BioAssay (NCI)
